method_description: Volume of distribution at steady state in mouse at 3 mg/kg, iv
Format: ADME, organism-based
test_parameters: in vivo, read-out: Vdss
readout_type: Vd
Output should be the measured figure followed by the unit it is expressed in.

Quick one: Vd of `C=CC(=O)N[C@H]1COC[C@H]1Nc1ncc2cc(-c3c(Cl)c(OC)cc(OC)c3Cl)c(=O)n(C)c2n1` ?
0.63 L/kg

----------
method_description: Oral bioavailability in cynomolgus monkey at 10 mg/kg
Type: ADME, organism-based, Macaca fascicularis
test_parameters: in vivo
readout_type: bioavailability (%)
Enter your answer as a number in %; do not include the unit.

Quick one: bioavailability of `C=CC(=O)N[C@H]1COC[C@H]1Nc1ncc2cc(-c3c(Cl)c(OC)cc(OC)c3Cl)c(=O)n(C)c2n1` ?
27

----------
method_description: Volume of distribution at steady state in cynomolgus monkey at 3 mg/kg, iv
Format: ADME, organism-based, Macaca fascicularis
test_parameters: in vivo, read-out: Vdss
readout_type: Vd (L/kg)
Enter your answer as a number in L/kg; do not include the unit.

Quick one: Vd of `C=CC(=O)N[C@H]1COC[C@H]1Nc1ncc2cc(-c3c(Cl)c(OC)cc(OC)c3Cl)c(=O)n(C)c2n1` ?
1.1

----------
method_description: Half life in cynomolgus monkey at 10 mg/kg, po
Format: ADME, organism-based, Macaca fascicularis
test_parameters: in vivo
readout_type: half-life (min)
Enter your answer as a number in min; do not include the unit.

Quick one: half-life of `C=CC(=O)N[C@H]1COC[C@H]1Nc1ncc2cc(-c3c(Cl)c(OC)cc(OC)c3Cl)c(=O)n(C)c2n1` ?
120

----------
method_description: Half life in rat at 10 mg/kg, po
Format: ADME, organism-based
test_parameters: in vivo
readout_type: half-life (h)
Enter your answer as a number in h; do not include the unit.

Quick one: half-life of `C=CC(=O)N[C@H]1COC[C@H]1Nc1ncc2cc(-c3c(Cl)c(OC)cc(OC)c3Cl)c(=O)n(C)c2n1` ?
3.2

----------
method_description: Cmax in rat at 10 mg/kg, po
Assay type: ADME, organism-based
Set-up: route oral, dose 10 mg/kg
test_parameters: in vivo
readout_type: Cmax
Output should be the measured figure followed by the unit it is expressed in.

Quick one: Cmax of `C=CC(=O)N[C@H]1COC[C@H]1Nc1ncc2cc(-c3c(Cl)c(OC)cc(OC)c3Cl)c(=O)n(C)c2n1` ?
588 ng/mL
